Listed here: items and their measured Biochem EGFR %Inhibition.
tested on: EGFR (Homo sapiens)
Construct: Add 7 ug A431 cell lysate per well (EGFR source); endogenous in cells; host or cells: A431
Sequence (P00533 25-1210): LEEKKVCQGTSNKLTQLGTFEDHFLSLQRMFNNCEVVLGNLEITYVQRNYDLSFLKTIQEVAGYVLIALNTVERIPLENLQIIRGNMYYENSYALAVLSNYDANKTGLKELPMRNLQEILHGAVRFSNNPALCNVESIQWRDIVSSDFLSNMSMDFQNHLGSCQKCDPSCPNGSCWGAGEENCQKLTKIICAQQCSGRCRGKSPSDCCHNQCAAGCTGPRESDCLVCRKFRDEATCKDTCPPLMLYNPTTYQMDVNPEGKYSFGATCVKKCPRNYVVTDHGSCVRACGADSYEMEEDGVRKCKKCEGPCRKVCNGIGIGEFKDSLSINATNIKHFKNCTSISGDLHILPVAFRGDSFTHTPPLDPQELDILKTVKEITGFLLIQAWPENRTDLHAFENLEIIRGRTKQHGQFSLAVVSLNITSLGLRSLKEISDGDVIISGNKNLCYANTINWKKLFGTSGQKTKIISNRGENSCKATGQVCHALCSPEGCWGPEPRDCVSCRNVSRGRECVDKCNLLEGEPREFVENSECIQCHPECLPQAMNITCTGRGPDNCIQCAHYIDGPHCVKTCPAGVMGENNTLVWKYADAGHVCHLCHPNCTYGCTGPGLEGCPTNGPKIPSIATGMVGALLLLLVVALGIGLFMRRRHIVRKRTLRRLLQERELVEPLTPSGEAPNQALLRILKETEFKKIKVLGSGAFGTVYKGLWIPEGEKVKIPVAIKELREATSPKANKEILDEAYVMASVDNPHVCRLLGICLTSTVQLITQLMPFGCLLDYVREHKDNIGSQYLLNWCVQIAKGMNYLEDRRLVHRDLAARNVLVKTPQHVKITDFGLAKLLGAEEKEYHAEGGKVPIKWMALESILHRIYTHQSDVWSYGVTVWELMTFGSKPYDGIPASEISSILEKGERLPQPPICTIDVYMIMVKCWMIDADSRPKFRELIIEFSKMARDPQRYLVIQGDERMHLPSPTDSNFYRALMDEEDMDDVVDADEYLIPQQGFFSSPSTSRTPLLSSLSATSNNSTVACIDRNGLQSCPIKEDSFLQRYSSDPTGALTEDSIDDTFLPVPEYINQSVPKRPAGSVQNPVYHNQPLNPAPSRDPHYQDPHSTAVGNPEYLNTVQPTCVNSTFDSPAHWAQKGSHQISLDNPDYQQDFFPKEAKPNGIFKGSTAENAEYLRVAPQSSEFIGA
measurement description: EGFR ELISA assay (in vitro kinase activity, EGFR captured from A431 cell lysate)
Format: biochemical
Set-up: concentration or dose not given beside the values
Give just the number in %; leave the unit off.

compound	tested on	Biochem EGFR %Inhibition, %
Cc1c(Br)ccc2c1C(=Cc1cc(Br)ccc1O)C(=O)N2 [10733/C09]	EGFR (Homo sapiens)	46.0
O=C1Nc2ccccc2C1=C1C(=O)Nc2ccc(S(=O)(=O)Nc3ccc(C(F)(F)F)cc3)cc21 [10726/E09]	EGFR (Homo sapiens)	10.0
COC(=O)Cc1c(Cl)[nH]c(C=C2C(=O)Nc3ccc(I)cc32)c1C(=O)OC [10725/B09]	EGFR (Homo sapiens)	72.3
CNS(=O)(=O)c1ccc2c(c1)C(=Cc1c(Br)cnn1-c1ccc(Cl)cc1)C(=O)N2 [10725/D10]	EGFR (Homo sapiens)	11.7
CC(C)(C)c1ccc(C=C2C(=O)Nc3ccc(S(=O)(=O)N4CCOCC4)cc32)cc1 [10734/F10]	EGFR (Homo sapiens)	-8.3

Given item Cc1cc(C)c(C=C2C(=O)Nc3ccc(I)cc32)[nH]1 [10721/B08] , the value recorded as its Biochem EGFR %Inhibition is 64.0

Given item CNS(=O)(=O)c1ccc2c(c1)C(=Cc1cc(Br)c(O)c(C(C)(C)C)c1)C(=O)N2 [10721/D10] , the value recorded as its Biochem EGFR %Inhibition is 3.3

Given item COc1ccc(Br)c(C=C2C(=O)Nc3ccc(Br)c(C)c32)c1O [10725/C03] , the value recorded as its Biochem EGFR %Inhibition is -12.7

Sourced from patent EP1247803A2
